# Experimental target: ERR1 (also known as ERR-α or ERR-1) (Homo sapiens)
# Sequence (P11474 193-421 limits assumed): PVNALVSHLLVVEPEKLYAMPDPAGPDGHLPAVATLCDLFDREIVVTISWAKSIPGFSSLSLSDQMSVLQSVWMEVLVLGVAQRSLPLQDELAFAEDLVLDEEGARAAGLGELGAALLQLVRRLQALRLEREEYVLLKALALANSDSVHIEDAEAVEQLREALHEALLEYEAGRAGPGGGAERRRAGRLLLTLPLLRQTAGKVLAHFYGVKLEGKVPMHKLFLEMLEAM
# Run description: TR-FRET assay (disruption of co-activator peptide binding)
# Measurement context: 6His-tagged ERR1LBD, GST-hSRC2 co-activator peptide; average of 3 independent experiments
What pEC50 was measured for each of the following?
Remember the convention: pEC50 equals -log10 of concentration in molar.

Task: Entry CN(C)CCN(C)C1=NC(=O)/C(=C/c2ccc3c(cnn3Cc3ccc(S(C)(=O)=O)cc3Cl)c2)S1 has what pEC50?
Output: 6.08

Task: Further, for CN1CCC(CN(C)C2=NC(=O)/C(=C/c3ccc4c(cnn4Cc4ccc(Cl)cc4C(F)(F)F)c3)S2)C1 (stereo not shown) ?
Output: 7.77

Task: Repeat for the following molecule: CN(CC(O)CO)C1=NC(=O)/C(=C/c2ccc3c(cnn3Cc3ccc(Cl)cc3C(F)(F)F)c2)S1 (stereo not shown)
Output: 8.44

Task: Let us now turn to COCCN(CCOC)C1=NC(=O)/C(=C/c2ccc3c(cnn3Cc3ncc(C(F)(F)F)cc3Cl)c2)S1
Output: 6.10

Task: Thanks! And CN(C1=NC(=O)/C(=C/c2ccc3c(cnn3Cc3ccc(Cl)cc3C(F)(F)F)c2)S1)[C@@H]1CN[C@H](CO)C1 (stereo in doubt) ?
Output: 7.62

Task: Moving on to CN(CCN1CCCC1)C1=NC(=O)/C(=C/c2ccc3c(cnn3Cc3ccc(Cl)cc3C(F)(F)F)c2)S1
Output: 7.89

Task: Then what about the molecule CC(C(N)=O)N1CCC(N(C)C2=NC(=O)/C(=C/c3ccc4c(cnn4Cc4ccc(C(F)(F)F)cc4C(F)(F)F)c3)S2)CC1 (stereo not shown) ?
Output: 7.62

Task: Same question for COC[C@@H]1C[C@H](N(C)C2=NC(=O)/C(=C/c3ccc4c(cnn4Cc4ccc(Cl)cc4C(F)(F)F)c3)S2)CN1 (stereo in doubt) please.
Output: 7.62

Task: // query: CNCC(O)CN(C)C1=NC(=O)/C(=C/c2ccc3c(cnn3Cc3ccc(Cl)cc3C(F)(F)F)c2)S1 (stereo not shown)
Output: 7.39

Task: Lookup C=CCN(C)C1=NC(=O)/C(=C/c2ccc3c(cnn3Cc3ccc(Cl)cc3C(F)(F)F)c2)S1
Output: 7.60

Task: # iterate: CN(CC(O)CN)C1=NC(=O)/C(=C/c2ccc3c(cnn3Cc3ccc(Cl)cc3C(F)(F)F)c2)S1 (stereo not shown)
Output: 6.92

Task: Now the molecule CN(C[C@H](O)c1ccc(O)cc1)C1=NC(=O)/C(=C/c2ccc3c(cnn3Cc3ccc(Cl)cc3C(F)(F)F)c2)S1
Output: 7.51

Task: Another: O=C1N=C(N(CCO)CCO)S/C1=C\c1ccc2c(cnn2Cc2ccc(Cl)cc2C(F)(F)F)c1
Output: 8.00

Task: What do you have for CN(C1=NC(=O)/C(=C/c2ccc3c(cnn3Cc3ccc(C(F)(F)F)cc3C(F)(F)F)c2)S1)C1CCNC1 (stereo not shown) ?
Output: 7.52

Task: Query COCCN(CCOC)C1=NC(=O)/C(=C/c2ccc3c(cnn3Cc3ccc(Cl)cc3C(F)(F)F)c2)S1 next
Output: 8.48

Task: Another molecule to look at: CN(CCN1CCOCC1)C1=NC(=O)/C(=C/c2ccc3c(cnn3Cc3ccc(C(F)(F)F)cc3C(F)(F)F)c2)S1
Output: 7.68

Task: Likewise for COCCN1CCC(N(C)C2=NC(=O)/C(=C/c3ccc4c(cnn4Cc4ccc(Cl)cc4C(F)(F)F)c3)S2)CC1 ?
Output: 8.05

Task: Please do the same for CN(CC(=O)O)C1=NC(=O)/C(=C/c2ccc3c(cnn3Cc3ccc(O)cc3C(F)(F)F)c2)S1 as well.
Output: 7.77

Task: CN1CCC(N(C)C2=NC(=O)/C(=C/c3ccc4c(cnn4Cc4ccc(C(F)(F)F)cc4C(F)(F)F)c3)S2)C1 (stereo not shown) ?
Output: 7.17

Task: Moving on to CN(CC(=O)O)C1=NC(=O)/C(=C/c2ccc3c(cnn3Cc3ccc(C(C)(C)O)cc3C(F)(F)F)c2)S1
Output: 5.92

Task: Same read-out for CN(C1=NC(=O)/C(=C/c2ccc3c(cnn3Cc3ccc(Cl)cc3C(F)(F)F)c2)S1)C1CCN(CCF)CC1 ?
Output: 7.96

Task: Also check CN(C1=NC(=O)/C(=C/c2ccc3c(cnn3Cc3ccc(Cl)cc3C(F)(F)F)c2)S1)[C@H]1CCNC[C@H]1F
Output: 7.68
